# target-or-system: human Epidermal Growth Factor Receptor (huEGFR) over-expressed in mcl-1-/- mouse embryonic fibroblasts (human, UniProt P00533 25-1210)
# assay-method-text: cell-based or functional assay
readout: huEGFR^+ mcl-1^-/- MEF EC50 (µM)
Give your result in µM as a bare value.

Study these solved cases before continuing.
[
  {
    "binder": "AbB-WD (antibody, V domains shown, synthon WD on reduced interchain Cys) VH: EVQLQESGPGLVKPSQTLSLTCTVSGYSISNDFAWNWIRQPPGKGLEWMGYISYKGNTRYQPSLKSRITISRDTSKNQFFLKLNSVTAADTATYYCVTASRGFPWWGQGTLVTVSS VL: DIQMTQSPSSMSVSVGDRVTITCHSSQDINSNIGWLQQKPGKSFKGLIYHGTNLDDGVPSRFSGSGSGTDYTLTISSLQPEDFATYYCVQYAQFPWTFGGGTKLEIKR",
    "readout": "huEGFR^+ mcl-1^-/- MEF EC50",
    "units-label": "µM",
    "result": 0.023
  },
  {
    "binder": "AbA-YY (antibody, V domains shown, synthon YY on reduced interchain Cys) VH: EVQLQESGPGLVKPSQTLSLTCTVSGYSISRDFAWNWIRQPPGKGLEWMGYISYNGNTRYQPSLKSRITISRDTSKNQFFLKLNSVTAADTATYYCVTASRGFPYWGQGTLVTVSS VL: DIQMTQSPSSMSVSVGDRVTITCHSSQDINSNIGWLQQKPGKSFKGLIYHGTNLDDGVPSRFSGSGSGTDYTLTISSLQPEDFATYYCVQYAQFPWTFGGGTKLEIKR",
    "readout": "huEGFR^+ mcl-1^-/- MEF EC50",
    "units-label": "µM",
    "result": 0.46
  }
]

Attention now turns to another entry.
## Task Which huEGFR^+ mcl-1^-/- MEF EC50 is reported for this binder? AbG-AAA (antibody, V domains shown, synthon AAA on reduced interchain Cys) VH: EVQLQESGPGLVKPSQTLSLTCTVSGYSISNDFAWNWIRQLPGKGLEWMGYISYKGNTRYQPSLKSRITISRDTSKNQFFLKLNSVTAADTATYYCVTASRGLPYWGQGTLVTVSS VL: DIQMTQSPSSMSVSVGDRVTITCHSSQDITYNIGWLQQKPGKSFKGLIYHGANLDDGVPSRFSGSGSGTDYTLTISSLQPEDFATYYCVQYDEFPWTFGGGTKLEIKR
## Result 0.22
